# targetOrTestSystem: Type I 5α-Reductase from Human Scalp (Homo sapiens)
# Construct: Scalp punch biopsies from graft recipient sites were obtained from human hair transplant procedures; from tissue; host or cells: human scalp punch biopsies (hair transplant graft recipient sites), homogenate, 100,000×g pellet
# Sequence (P18405 whole entry): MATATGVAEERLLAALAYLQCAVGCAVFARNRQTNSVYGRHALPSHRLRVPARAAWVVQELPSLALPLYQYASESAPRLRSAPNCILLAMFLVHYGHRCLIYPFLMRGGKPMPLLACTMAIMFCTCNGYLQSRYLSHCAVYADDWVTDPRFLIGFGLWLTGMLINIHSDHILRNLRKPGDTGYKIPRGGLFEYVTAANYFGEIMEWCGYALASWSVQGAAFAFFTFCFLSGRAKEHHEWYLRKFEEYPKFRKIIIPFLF
# assayOverview: Human Type I 5α-reductase assay (conversion of [3H]-testosterone to 5α-reduced metabolites)
# Assay type: biochemical
# condition: pH 7.5, 0.3 μM; 50 nM [3H]-testosterone, pH 7.5, 25°, 180 min; compared to control reaction mixtures; read-out: percent inhibition of Type I AR
metricName: inhibition at 0.3 µM (%)

Below: 2 compounds and their reported inhibition at 0.3 µM.
CN1C(=O)CC[C@]2(C)c3ccc(-c4cccc(C(F)(F)F)c4)cc3CC[C@@H]12 | 76
CN1C(=O)CC[C@]2(C)c3ccc(-c4cccc(Cl)c4Cl)cc3CC[C@@H]12 | 87

A. CN1C(=O)CC[C@]2(C)c3ccc(Sc4ccc(-c5ccccc5)nn4)cc3CC[C@@H]12
B. CN1C(=O)CC[C@]2(C)c3ccc(-c4ccc(O)c(Cl)c4)cc3CC[C@@H]12
Exercise: Between A and B , whose recorded inhibition at 0.3 µM is greater? Answer = label.
Solution: B

Where these numbers come from: patent US5622962A
